I'd be grateful if you could share measured Kd for these entries.
Target: T1, RalA (residues 1-184, Q72L) (UniProt P11233 1-184, Q72L)
T1 construct: RalA small GTPase, residues 1-184, constitutively active Q72L; Loaded with [3H]GTP for the SPAs; also called [3H]GTP-labelled RalA; source: expressed from pMAT10 as His6-MBP fusion, prepared and cleaved from its tags as described previously
T1 sequence (looked up): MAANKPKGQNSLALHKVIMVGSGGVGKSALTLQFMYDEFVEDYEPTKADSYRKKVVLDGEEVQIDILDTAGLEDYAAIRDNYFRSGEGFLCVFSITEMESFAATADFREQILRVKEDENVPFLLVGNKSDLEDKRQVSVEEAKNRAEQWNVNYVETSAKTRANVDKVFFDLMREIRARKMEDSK
Test: fluorescence polarisation; direct binding of 20 nM FAM-labelled peptide to varying concentrations of small GTPase; 298 K; read after 30 min at room temperature; single-site binding model; n >= 2
Settings: both partners purified
Positions of bridges follow the written chain, without caps; N, C: chain ends. Non-standard residues stand in square brackets, D forms with d. No end group written: not given here. *: point of attachment. 5FAM = O=C1OC2(c3ccc(O)cc3Oc3cc(O)ccc32)c2ccc(C(=O)*)cc21; S5 = C=CCCC[C@](C)(N)C(=O)O
Response body: numeric value in µM, unit text excluded.

Value of Kd reported for the binder 5FAM-L[S5]KEE[S5]LWEVQRILTALKRKLREA (staple 2-6) is 17.2

Value of Kd reported for the binder 5FAM-L[S5]KEH[S5]LWEVLRILTALRRKLREA (staple 2-6) is 4.68

Reference source: paper PMC7949049
